assay: Pharmacokinetics of SN-38 and SN-38G after i.v. dosing of SN-38 in 40% SBECD; format: in vivo, Female Sprague-Dawley rats; conditions: female, Sprague-Dawley, rat, in vivo, iv, 0.65 mg/kg
observable: concentration at 6 h (ng/mL)
Write down the numeric answer in ng/mL and omit the unit.

Respond only with concentration at 6 h recorded for `CCc1c2c(nc3ccc(O)cc13)-c1cc3c(c(=O)n1C2)COC(=O)[C@]3(O)CC`
1.2

====

experiment: Pharmacokinetics of SN-38 and SN-38G after i.v. dosing of SN-38 in 40% SBECD; assay type: in vivo, Female Sprague-Dawley rats; conditions: female, Sprague-Dawley, rat, in vivo, iv, 0.65 mg/kg
observable: AUC (ng·h/mL)
Give the number; ng·h/mL is assumed, so skip it.

Please report AUC for the following compound: CCc1c2c(nc3ccc(O)cc13)-c1cc3c(c(=O)n1C2)COC(=O)[C@]3(O)CC [SN-38]
106

====

test: Pharmacokinetics of SN-38 and SN-38G after i.v. dosing of SN-38 in 40% SBECD; type: in vivo, Female Sprague-Dawley rats; details: female, Sprague-Dawley, rat, in vivo, iv, 2 mg/kg
observable: concentration at 0.17 h (ng/mL)
Quick note: give the figure in ng/mL, leave out the unit.

Tell me its concentration at 0.17 h given CCc1c2c(nc3ccc(O)cc13)-c1cc3c(c(=O)n1C2)COC(=O)[C@]3(O)CC [SN-38] as the entry.
625

====

Experiment: Pharmacokinetics of SN-38 and SN-38G after i.v. dosing of SN-38 in 40% SBECD
Format: in vivo, Female Sprague-Dawley rats
Conditions: female, Sprague-Dawley, rat, in vivo, iv, 0.65 mg/kg
Procedure: Female Sprague-Dawley rats, 4 animals per group received i.v. injections of SN-38 (doses 0.65 mg/kg and 2 mg/kg) in 40% SBECD. The SN-38 solution for the treatment was prepared by the dilution of concentrated composition of the Example 1 with water. The blood plasma samples were collected from each group of animals, extracted using liquid extraction with cold methanol/acetonitrile mixture (1:1 v/v), and analyzed using a HPLC method with fluorescent detection. […]
observable: concentration at 0.17 h (ng/mL)
Quick reminder: number only, in ng/mL, skip the unit.

Using the record for `CCc1c2c(nc3ccc(O)cc13)-c1cc3c(c(=O)n1C2)COC(=O)[C@]3(O)CC` , state its measured concentration at 0.17 h.
157

====

test: Pharmacokinetics of SN-38 and SN-38G after i.v. dosing of SN-38 in 40% SBECD; assay type: in vivo, Female Sprague-Dawley rats; settings: female, Sprague-Dawley, rat, in vivo, iv, 2 mg/kg
observable: concentration at 1 h
Give the figure together with its unit, number first.

Check the records and state concentration at 1 h for `CCc1c2c(nc3ccc(O)cc13)-c1cc3c(c(=O)n1C2)COC(=O)[C@]3(O)CC`
29.8 ng/mL

====

Assay: Pharmacokinetics of SN-38 and SN-38G after i.v. dosing of SN-38 in 40% SBECD
Format: in vivo, Female Sprague-Dawley rats
Conditions: female, Sprague-Dawley, rat, in vivo, iv, 2 mg/kg
Experimental: Female Sprague-Dawley rats, 4 animals per group received i.v. injections of SN-38 (doses 0.65 mg/kg and 2 mg/kg) in 40% SBECD. The SN-38 solution for the treatment was prepared by the dilution of concentrated composition of the Example 1 with water. The blood plasma samples were collected from each group of animals, extracted using liquid extraction with cold methanol/acetonitrile mixture (1:1 v/v), and analyzed using a HPLC method with fluorescent detection. […]
observable: concentration at 0.75 h (ng/mL)
Answer format: numeric, ng/mL implied, no suffix.

Report measured concentration at 0.75 h; entry is `CCc1c2c(nc3ccc(O)cc13)-c1cc3c(c(=O)n1C2)COC(=O)[C@]3(O)CC`
51.4

Attribution: patent US20110207760A1
